Tested on: RBL-2H3 cells
Experiment: 3H-serotonin release induced by ADNP/DNP.HSA immunogenic stimulation
Assay type: cell-based, rat
Conditions: inhibition of 3H-serotonin release; +anandamide (12.5 µM); read-out: ED50 (the source's name)
measurement-kind: pEC50
Numbers only, as −log10 of the molar value.

Determine its reported pEC50: Cc1c(C(=O)c2cccc3ccccc23)c2cccc3c2n1[C@H](CN1CCOCC1)CO3 [WIN 55,212-2, reference compound]
4.40

---

Test system: RBL-2H3 cells
Assay: 3H-serotonin release induced by ADNP/DNP.HSA immunogenic stimulation
Assay type: cell-based, rat
Details: Rattus norvegicus, RBL-2H3, concentration inhibiting by 50% the net release of 3H serotonin; 0.2% DMSO; 15 minutes release period; means ± SEM; read-out: EC50
Kindly state pEC50 for each of the entries shown.
Give bare numbers, as −log10 of the molar value.

CCCCCCCC/C=C\CCCCCCCC(=O)N[C@H]1C(O)O[C@H](CO)[C@@H](O)[C@@H]1O (stereo partly drawn) [Example 16, N-oleoyl-D-glucosamine]	5.62

// each compound listed below needs its pEC50
1. CCCCCCCCCCCC(=O)NCC(=O)O [Example 8, N-lauroyl-glycine]
2. CCCCCCCCCCCC(=O)N[C@@H](CO)C(=O)OC [Example 5, N-lauroyl-L-serine methylester]
3. CCCCCCCCCCCC(=O)N[C@H]1C(O)O[C@H](CO)[C@@H](O)[C@@H]1O (stereo partly drawn) [Example 15, N-lauroyl-D-glucosamine]
4. CCCCCCCCCCCCCCCC(=O)NCCCC(=O)O [Example 11, N-palmitoyl-gamma-aminobutyric acid]
5. CCCCCCCCCCCCCCCC(=O)N[C@H]1C(O)O[C@H](CO)[C@@H](O)[C@@H]1O (stereo partly drawn) [Example 14, N-palmitoyl-D-glucosamine]

[5.00, 3.98, 4.92, 4.59, 5.89]
